# Target Of Assay: T1, recombinant hCTLA-4-mFc (human CTLA-4 extracellular domain with a C-terminal Fc portion of mouse IgG2a) (human)
# T1 construct: also called dimeric CTLA-4 protein
# T1 sequence (chain, as listed by the source limits assumed): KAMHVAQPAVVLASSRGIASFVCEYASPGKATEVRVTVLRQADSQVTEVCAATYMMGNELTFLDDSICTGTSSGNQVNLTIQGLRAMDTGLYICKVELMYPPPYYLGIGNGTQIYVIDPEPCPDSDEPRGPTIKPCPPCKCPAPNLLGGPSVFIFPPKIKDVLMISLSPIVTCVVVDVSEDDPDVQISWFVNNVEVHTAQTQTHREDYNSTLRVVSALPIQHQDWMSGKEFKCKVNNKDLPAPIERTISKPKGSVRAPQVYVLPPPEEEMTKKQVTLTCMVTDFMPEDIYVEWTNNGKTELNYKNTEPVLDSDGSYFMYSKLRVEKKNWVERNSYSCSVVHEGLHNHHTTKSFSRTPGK
# Experiment Summary: competition ELISA, 400 pM hCTLA-4-mFc on plate-coated hB7-2-hIgG1-6His
Measure Name: % Blockade (%)
Give your result in % as a bare value.

# Binder, % Blockade (%)
data = [
    ("H1H19269P (antibody, human IgG1, V domains shown) VH: EVQLVESGGGLVQPGGSLKLSCAASGFTFSGSAMHWVRQASGKGLEWVGRIRGKANSFATAYSASVKGRFTISRDDSKNTASLQMNSLRTEDTAVYFCTREDQQLVRPYYYHYGMDVWGQGTTVTVSS VL: DIQMTQSPSSLSASVGDRVTITCRTSQSITNYLNWYQQKPGKAPKLLIYATASLQSGVPSRFSGSGSETDFTLTISSLQPEDFATYYCQQSYSTPLTFGGGTKVEIK", 100),
]

The reported value for H1H19278P (antibody, human IgG1, V domains shown) VH: QVQLVESGGGVVQPGRSLRLSCAASGFTFSSYGMNWVRQAPGKGLEWVAVTWYDGSNKHYADSVKGRFTISRDNSKNTLYLQMYSLRAEDTAMYYCVRGGHLGAFDIWGQGTMVTVSS VL: EIVLTQSPGTLSLSPGERATLSCRASQSVSSYLAWYQQKPGQAPRLLIYGASSRATGIPDRFSGGGSGTDFTLTISRLEPEDFAVYYCQQYGSSPFTFGPGTKVDIK in terms of % Blockade is 100

The reported value for H1H19280P (antibody, human IgG1, V domains shown) VH: QLQLQESGPGLVKPSETLSLTCIVSGGSTSSNTYYWGWIRQPPGKGLEWIGTIHYSGNPYYDPSLKSRVTISVDTSKNHFSLKLNSVTAADTAVYYCTRQYINFFDFWGQGTLVTVSS VL: EIVLTQSPATLSLSPGERVTLSCRASQSISRYLAWYQQKPGQAPRVLIYDASNRATDIPARFSGSGSGTDFTLTISSLEPEDFAVYYCQQRSNWPITFGQGTRLEIK in terms of % Blockade is 100
